Molecular target: T1, Cyno CD33 full length (cynomolgus monkey)
T1 construct: also called cyCD33
Assay: flow cytometry on HEK293F cells expressing cyno CD33
Listed binders paired with reported MFI at 6 nM

Binder	MFI at 6 nM (MFI)
C33B910 (antibody, V domains shown, OMNIMouse-derived anti-CD33 mAb; same V regions as C33B902; also called C33H250/C33L116) VH: EVQLVESGGGLVQPGRSLRLSCAGSGFTFDDYAIHWVRQAPGKGLEWVSGLSWNGGNIGYADSVKGRFTISRDNAKNSLYLQLNSLKTEDTAFYYCAKDSPYGDYFDYWGQGTLVTVSS VL: DIQMTQSPSSEWASVGDRVTITCRASQGISSWLAWYQQKPGKAPKLLIYGASSWQSGVPSRFSGSGSGTDFTLTISSLQPEDFATYYCQQDNSFPYTFGQGTKLEIK	135
C33B909 (antibody, V domains shown, OMNIMouse-derived anti-CD33 mAb; same V regions as C33B901; The OMNIMouse mAbs were cloned into both IgG1 and IgG4 PAA; also called C33H249/C33L115) VH: EVQLVESGGGLVQPGRSLRLSCVASGFTFDDYAIHWVRQAPGKGLEWVSGLSWNGGNIGYADSVKGRFTISRDNAKNSLYLQMNSLKTEDTAFYYCTKDTPYGDYFDYWGQGTLVTVSS VL: DIQMTQSPSSVWASVGDRVTITCRASQGISSWLAWYQQQPGKAPNLLIYRSSSLQSGVPSRFSGSGSGTDFTLTISSLQPEDFATYYCQQDNSFPYTFGQGTKLEIK	135
C33B916 (antibody, V domains shown, OMNIMouse-derived anti-CD33 mAb; same V regions as C33B908; also called C33H256/C33L122; C33F554) VH: QVQLVESGGGVVQPGRSLRLSCATSGFTFSNYGMHWVRQAPGKGLEWVAVIWYVGSHKYYADSVKGRFTISRDNSKNTLYLQMNSLRAEDTAVYYCARDGSLCFDYWGQGTLVTVSS VL: SYELTQPPSVSVSPGQTANISCSGVTLGYNYAYWYQQKPGQSPILVISQDTQRPSGIPERFSGSNSGNTATLTISGTQAMDEAAYYCQAWDITTVLFGGGTKLTVL	33300
